- Target system: kinases (Homo sapiens, UniProt P36888)
- Construct: purchased Eurofins/DiscoveRx; host or cells: E. coli BL21-derived host (T7 phage display) for most kinases; HEK-293 for the rest
- Experimental protocol: KINOMEscan kinase binding assay (Eurofins/DiscoveRx), % Ctrl
- Conditions: 1 μM; target FLT3-autoinhibited
% Ctrl, FLT3-autoinhibited by entry:
State just the number; it will be interpreted in % Ctrl.

- Compound: "Cc1cc2c([nH]1)/C=C1\\C(=O)Nc3ccc(cc31)-c1cnn(C)c1OCCCN(C)C2=O [Ex. 166]"
  Target system: "kinases (Homo sapiens, UniProt P36888)"
  Measured endpoint: "% Ctrl, FLT3-autoinhibited"
  Units symbol: "% Ctrl"
  Recorded result: 2
- Compound: "Cc1cc2c([nH]1)/C=C1\\C(=O)Nc3cc(Cl)c(cc31)SCCOCCN(C)C2=O [Ex. 169]"
  Target system: "kinases (Homo sapiens, UniProt P36888)"
  Measured endpoint: "% Ctrl, FLT3-autoinhibited"
  Units symbol: "% Ctrl"
  Recorded result: 12
- Compound: "CN1CCOc2cc3c(cc2Cl)NC(=O)/C3=C\\c2[nH]ccc2C(=O)N(C)CC1 [Ex. 164]"
  Target system: "kinases (Homo sapiens, UniProt P36888)"
  Measured endpoint: "% Ctrl, FLT3-autoinhibited"
  Units symbol: "% Ctrl"
  Recorded result: 63
- Compound: "Cc1cc2c([nH]1)/C=C1\\C(=O)Nc3ccc(cc31)-c1c(noc1C(C)C)COCCN(C)C2=O [Ex. 161]"
  Target system: "kinases (Homo sapiens, UniProt P36888)"
  Measured endpoint: "% Ctrl, FLT3-autoinhibited"
  Units symbol: "% Ctrl"
  Recorded result: 100

Q) # input compound: Cc1cc2c([nH]1)/C=C1\C(=O)Nc3cnc(cc31)-c1cnn(C)c1CN(C)CCN(C)C2=O [Ex. 172] ; wanted: its % Ctrl, FLT3-autoinhibited
A) 90

---

- System: kinases
- Experimental protocol: KINOMEscan kinase binding assay (Eurofins/DiscoveRx), % Ctrl
- Conditions: 1 μM; EGFR(L747-S752del, P753S)
Measured endpoint: % Ctrl, EGFR(L747-S752del, P753S) (% Ctrl)
Respond with the bare value in % Ctrl.

Worked cases, % Ctrl, EGFR(L747-S752del, P753S) given:
- Compound: "Cc1cc2c([nH]1)/C=C1\\C(=O)Nc3cc(Cl)c(cc31)OCCO[C@@H](C(=O)N(C)C)CN(C)C2=O [Ex. 137]"
  Units symbol: "% Ctrl"
  % Ctrl, EGFR(L747-S752del, P753S): 100
- Compound: "Cc1cc2c([nH]1)/C=C1\\C(=O)Nc3cc(Cl)c(cc31)OCCOCCN(C)C2=O [Ex. 131]"
  Units symbol: "% Ctrl"
  % Ctrl, EGFR(L747-S752del, P753S): 50
- Compound: "Cc1cc2c([nH]1)/C=C1\\C(=O)Nc3ccc(cc31)OCCOCCNC2=O [Ex. 129]"
  Units symbol: "% Ctrl"
  % Ctrl, EGFR(L747-S752del, P753S): 98
- Compound: "Cc1cc2c([nH]1)/C=C1\\C(=O)Nc3ccc(cc31)O[C@@H](C)COCCN(C)C2=O [Ex. 92]"
  Units symbol: "% Ctrl"
  % Ctrl, EGFR(L747-S752del, P753S): 55
- Compound: "Cc1cc2c([nH]1)/C=C1\\C(=O)Nc3cc(Cl)c(cc31)OCCO[C@@H](C(=O)NC1CNC1)CN(C)C2=O [Ex. 133]"
  Units symbol: "% Ctrl"
  % Ctrl, EGFR(L747-S752del, P753S): 100
- Compound: "Cc1cc2c([nH]1)/C=C1\\C(=O)Nc3ccc(cc31)CN(C)C(=O)COCCNC2=O [Ex.111]"
  Units symbol: "% Ctrl"
  % Ctrl, EGFR(L747-S752del, P753S): 100
- Compound: "CNC(=O)[C@H]1CN(C)C(=O)c2cc(C)[nH]c2/C=C2\\C(=O)Nc3cc(Cl)c(cc32)OCCO1 [Ex. 135]"
  Units symbol: "% Ctrl"
  % Ctrl, EGFR(L747-S752del, P753S): 80

Field: next compound
Q) For Cc1cc2c([nH]1)/C=C1\C(=O)Nc3ccc(cc31)-c1ccnn1CCOCCNC2=O [Ex.39] , what is its reported % Ctrl, EGFR(L747-S752del, P753S)?
A) 66

---

- Target system: kinases (Homo sapiens, UniProt P36888, D835V)
- Construct: purchased Eurofins/DiscoveRx; host or cells: E. coli BL21-derived host (T7 phage display) for most kinases; HEK-293 for the rest
- Experimental protocol: KINOMEscan kinase binding assay (Eurofins/DiscoveRx), % Ctrl
- Conditions: 1 μM; FLT3(D835V)
Measured endpoint: % Ctrl, FLT3(D835V) (% Ctrl)
Expressed in % Ctrl, but write only the number.

- Molecule: "Cc1cc2c([nH]1)/C=C1\\C(=O)Nc3ccc(cc31)O[C@@H](C)COCCN(C)C2=O [Ex. 92]"
  Measured endpoint: "% Ctrl, FLT3(D835V)"
  Recorded result: 3.7
- Molecule: "Cc1cc2c([nH]1)/C=C1\\C(=O)Nc3ccc(cc31)OCCOCCNC2=O [Ex. 129]"
  Measured endpoint: "% Ctrl, FLT3(D835V)"
  Recorded result: 17
- Molecule: "Cc1cc2c([nH]1)/C=C1\\C(=O)Nc3ccc(cc31)-c1cnn(C)c1CN(C)CCN(C)C2=O [Ex. 126]"
  Measured endpoint: "% Ctrl, FLT3(D835V)"
  Recorded result: 0
- Molecule: "Cc1cc2c([nH]1)/C=C1\\C(=O)Nc3cc(Cl)c(cc31)OCCO[C@@H](C(=O)N[C@@H]1CCNC1)CN(C)C2=O [Ex. 136]"
  Measured endpoint: "% Ctrl, FLT3(D835V)"
  Recorded result: 2
- Molecule: "Cc1cc2c([nH]1)/C=C1\\C(=O)Nc3ccc(cc31)-c1ccnn1CCOCCNC2=O [Ex.39]"
  Measured endpoint: "% Ctrl, FLT3(D835V)"
  Recorded result: 35

Q) What value of measured % Ctrl, FLT3(D835V) is listed for Cc1cc2c([nH]1)/C=C1\C(=O)Nc3cc(Cl)c(cc31)OCCO[C@@H](C(=O)N(C)C)CN(C)C2=O [Ex. 137] ?
A) 8.5

Q) What measured % Ctrl, FLT3(D835V) goes with Cc1cc2c([nH]1)/C=C1\C(=O)Nc3ccc(cc31)OCCOCCN(C)C2=O [Ex.91] ?
A) 0.05

Q) I would be grateful if you could share the reported % Ctrl, FLT3(D835V) for Cc1cc2c([nH]1)/C=C1\C(=O)Nc3ccc(nc31)-c1ccccc1OCCCNC2=O [Ex.22] .
A) 35

Q) Could you tell me which % Ctrl, FLT3(D835V) is on file for Cc1cc2c([nH]1)/C=C1\C(=O)Nc3cc(Cl)c(cc31)OCCO[C@@H](C(=O)NC1CNC1)CN(C)C2=O [Ex. 133] ?
A) 2.3

Q) What value of measured % Ctrl, FLT3(D835V) is listed for Cc1cc2c([nH]1)/C=C1\C(=O)Nc3cc(Cl)c(cc31)OCCOCCN(C)C2=O [Ex. 131] ?
A) 0

Q) Reported % Ctrl, FLT3(D835V) for Cc1cc2c([nH]1)/C=C1\C(=O)Nc3ccc(cc31)-c1c(C)n[nH]c1CNCCN(C)C2=O [Ex. 127] : what is it?
A) 0.15

Q) # get_value(readout='% Ctrl, FLT3(D835V)', item= Cc1cc2c([nH]1)/C=C1\C(=O)Nc3ccc(cc31)-c1c(noc1C)COCCN(C)C2=O [Ex. 128] )
A) 1.7

Q) If you can, please state the reported % Ctrl, FLT3(D835V) value of Cc1cc2c([nH]1)/C=C1\C(=O)Nc3ccc(cc31)-c1ccnn1CCNCCNC2=O [Ex. 43] .
A) 27

---

// reported % Ctrl, ABL1-phosphorylated for each item listed
- Target system: kinases (Homo sapiens)
- Construct: purchased Eurofins/DiscoveRx; host or cells: E. coli BL21-derived host (T7 phage display) for most kinases; HEK-293 for the rest
- Experimental protocol: KINOMEscan kinase binding assay (Eurofins/DiscoveRx), % Ctrl
- Conditions: 1 μM; ABL1-phosphorylated
- Procedure: Kinase binding assays were performed at Eurofins/DiscoveRx using the general KINOMEscan Protocol (Fabian, M. A. et al., “A small molecule-kinase interaction map for clinical kinase inhibitors,” Nat. Biotechnol. 2005, 23(3):329-36). For most assays, kinase-tagged T7 phage strains were prepared in an E. coli host derived from the BL21 strain. […] The kinase concentration in the eluates was measured by qPCR. […]

- Chemical string: "Cc1cc2c([nH]1)/C=C1\\C(=O)Nc3ccc(cc31)-c1ccnn1CCNCCNC2=O"
  % Ctrl, ABL1-phosphorylated: "90 % Ctrl"

Q) // % Ctrl, ABL1-phosphorylated lookup, key: "Cc1cc2c([nH]1)/C=C1\C(=O)Nc3ccc(cc31)-c1c(noc1C)COCCN(C)C2=O"
A) 51 % Ctrl

Q) Requested field: % Ctrl, ABL1-phosphorylated. Item: "Cc1cc2c([nH]1)/C=C1\C(=O)Nc3cnc(nc31)N(C)CCCOCCN(C)C2=O"
A) 93 % Ctrl

Q) Please give the measured % Ctrl, ABL1-phosphorylated for this compound: "Cc1cc2c([nH]1)/C=C1\C(=O)Nc3cc(Cl)c(cc31)OCCOCCN(C)C2=O"
A) 0 % Ctrl

Q) Name the recorded % Ctrl, ABL1-phosphorylated for "Cc1cc2c([nH]1)/C=C1\C(=O)Nc3ccc(cc31)-c1cnn(C)c1CN(C)CCN(C)C2=O" .
A) 0.1 % Ctrl

Q) Reported % Ctrl, ABL1-phosphorylated for "Cc1cc2c([nH]1)/C=C1\C(=O)Nc3ccc(cc31)-c1cnn(C)c1COCCN(C)C2=O" : what is it?
A) 0 % Ctrl

Q) What % Ctrl, ABL1-phosphorylated value was documented for this compound, "Cc1cc2c([nH]1)/C=C1\C(=O)Nc3ccc(cc31)OCCOCCN(C)C2=O" ?
A) 15 % Ctrl

Q) Any idea what % Ctrl, ABL1-phosphorylated was measured for "Cc1cc2c([nH]1)/C=C1\C(=O)Nc3cc(Cl)c(cc31)OCCO[C@@H](C(=O)N(C)C)CN(C)C2=O" ?
A) 61 % Ctrl

Q) Consider the compound "Cc1cc2c([nH]1)/C=C1\C(=O)Nc3ccc(nc31)-c1ccccc1OCCCNC2=O" and give its measured % Ctrl, ABL1-phosphorylated.
A) 69 % Ctrl

Q) Requested field: % Ctrl, ABL1-phosphorylated. Item: "Cc1cc2c([nH]1)/C=C1\C(=O)Nc3ccc(cc31)CN(C)C(=O)COCCNC2=O"
A) 59 % Ctrl

Q) // lookup % Ctrl, ABL1-phosphorylated for "Cc1cc2c([nH]1)/C=C1\C(=O)Nc3ccc(cc31)-c1ccnn1CCOCCN(C)C2=O"
A) 56 % Ctrl

Q) Bench note: what % Ctrl, ABL1-phosphorylated did "Cc1cc2c([nH]1)/C=C1\C(=O)Nc3ccc(cc31)-c1c(C)n[nH]c1CNCCN(C)C2=O" show?
A) 0 % Ctrl

Q) I am curious: what % Ctrl, ABL1-phosphorylated value has been reported for "Cc1cc2c([nH]1)/C=C1\C(=O)Nc3ccc(cc31)-c1ccnn1CCOCCNC2=O" ?
A) 78 % Ctrl

Q) What does the record list as % Ctrl, ABL1-phosphorylated for "Cc1cc2c([nH]1)/C=C1\C(=O)Nc3cc(Cl)c(cc31)OCCO[C@@H](C(=O)N[C@@H]1CCNC1)CN(C)C2=O" ?
A) 25 % Ctrl

Q) I would be grateful if you could share the reported % Ctrl, ABL1-phosphorylated for "Cc1cc2c([nH]1)/C=C1\C(=O)Nc3cnc(cc31)-c1cnn(C)c1COCCNC2=O" .
A) 100 % Ctrl

Q) Please report the recorded % Ctrl, ABL1-phosphorylated for "Cc1cc2c([nH]1)/C=C1\C(=O)Nc3ccc(cc31)O[C@@H](C)COCCN(C)C2=O" .
A) 25 % Ctrl
